Molecular target: human carbonic anhydrase 9 (CAIX) (human, UniProt Q16790 38-459)
Assay: FACS competition on HT-29 cells, competitor tracer 3BP-2776; category C = pIC50 6.1-7.0
Starred links: 1 amine or outer side, 2 acyl side, 3 side chain; linkers in the order of their positions; H or OH if unused. Positions of bridges follow the written chain, without caps; N, C: chain ends. Non-standard residues stand in square brackets, D forms with d. Primed or numbered codes have the meaning given here. *: point of attachment. Aph(iNic) = 4-aminophenylalanine with isonicotinoyl on the ring amine, O=C(Nc1ccc(C[C@H](N[*:1])C(=O)[*:2])cc1)c1ccncc1; APAc″ = 2-(4-(amino)piperidin-1-yl)acetic acid, NC1CCN(CC(=O)*)CC1; DOTA = O=C(O)CN1CCN(CC(=O)O)CCN(CC(=O)*)CCN(CC(=O)O)CC1; mXylylene = c1cc(C[*:1])cc(C[*:2])c1; Dab = NCC[C@H](N)C(=O)O; Thp = NC1(C(=O)O)CCOCC1
# key: entry, value: pIC50

Worked examples, 2 binders total:
[[record]]
binder = "Ac-VYCE[dP]KW[Thp]EWSC-NH2 (linker 3-12 via mXylylene; lactam 6-9; SMILES CC(=O)N[C@H](C(=O)N[C@@H](Cc1ccc(O)cc1)C(=O)N[C@H]1CSCc2cccc(c2)CSC[C@@H](C(N)=O)NC(=O)[C@H](CO)NC(=O)[C@H](Cc2c[nH]c3ccccc23)NC(=O)[C@@H]2CCC(=O)NCCCC[C@H](NC(=O)[C@H]3CCCN3C(=O)[C@H](CCC(=O)O)NC1=O)C(=O)N[C@@H](Cc1c[nH]c3ccccc13)C(=O)NC1(CCOCC1)C(=O)N2)C(C)C) [3BP-3962]"
valueobserved = "6.1 to 7 pic50"

[[record]]
binder = "Ac-VYCE[dP][Dab]WLDWSC-NH2 (linker 3-12 via mXylylene; lactam 6-9; SMILES CC(=O)N[C@H](C(=O)N[C@@H](Cc1ccc(O)cc1)C(=O)N[C@H]1CSCc2cccc(c2)CSC[C@@H](C(N)=O)NC(=O)[C@H](CO)NC(=O)[C@H](Cc2c[nH]c3ccccc23)NC(=O)[C@@H]2CC(=O)NCC[C@H](NC(=O)[C@H]3CCCN3C(=O)[C@H](CCC(=O)O)NC1=O)C(=O)N[C@@H](Cc1c[nH]c3ccccc13)C(=O)N[C@@H](CC(C)C)C(=O)N2)C(C)C) [3BP-4050]"
valueobserved = "6.1 to 7 pic50"


Now consider a different binder.
Data request: So what's the measured pIC50 for this one? {DOTA-APAc″}-VYCE[dP]D[Aph(iNic)]LTWSC-NH2 (linker 3-12 via mXylylene) [3BP-4183]
Data returned: 6.1 to 7 pic50
